Data origin, for the record: patent US20040266784A1

Biological target: P/Q-type channels (α1A+α2δ+β1b cDNA subunits) (Rattus norvegicus, UniProt P54282)
Sequence (P54282 whole entry): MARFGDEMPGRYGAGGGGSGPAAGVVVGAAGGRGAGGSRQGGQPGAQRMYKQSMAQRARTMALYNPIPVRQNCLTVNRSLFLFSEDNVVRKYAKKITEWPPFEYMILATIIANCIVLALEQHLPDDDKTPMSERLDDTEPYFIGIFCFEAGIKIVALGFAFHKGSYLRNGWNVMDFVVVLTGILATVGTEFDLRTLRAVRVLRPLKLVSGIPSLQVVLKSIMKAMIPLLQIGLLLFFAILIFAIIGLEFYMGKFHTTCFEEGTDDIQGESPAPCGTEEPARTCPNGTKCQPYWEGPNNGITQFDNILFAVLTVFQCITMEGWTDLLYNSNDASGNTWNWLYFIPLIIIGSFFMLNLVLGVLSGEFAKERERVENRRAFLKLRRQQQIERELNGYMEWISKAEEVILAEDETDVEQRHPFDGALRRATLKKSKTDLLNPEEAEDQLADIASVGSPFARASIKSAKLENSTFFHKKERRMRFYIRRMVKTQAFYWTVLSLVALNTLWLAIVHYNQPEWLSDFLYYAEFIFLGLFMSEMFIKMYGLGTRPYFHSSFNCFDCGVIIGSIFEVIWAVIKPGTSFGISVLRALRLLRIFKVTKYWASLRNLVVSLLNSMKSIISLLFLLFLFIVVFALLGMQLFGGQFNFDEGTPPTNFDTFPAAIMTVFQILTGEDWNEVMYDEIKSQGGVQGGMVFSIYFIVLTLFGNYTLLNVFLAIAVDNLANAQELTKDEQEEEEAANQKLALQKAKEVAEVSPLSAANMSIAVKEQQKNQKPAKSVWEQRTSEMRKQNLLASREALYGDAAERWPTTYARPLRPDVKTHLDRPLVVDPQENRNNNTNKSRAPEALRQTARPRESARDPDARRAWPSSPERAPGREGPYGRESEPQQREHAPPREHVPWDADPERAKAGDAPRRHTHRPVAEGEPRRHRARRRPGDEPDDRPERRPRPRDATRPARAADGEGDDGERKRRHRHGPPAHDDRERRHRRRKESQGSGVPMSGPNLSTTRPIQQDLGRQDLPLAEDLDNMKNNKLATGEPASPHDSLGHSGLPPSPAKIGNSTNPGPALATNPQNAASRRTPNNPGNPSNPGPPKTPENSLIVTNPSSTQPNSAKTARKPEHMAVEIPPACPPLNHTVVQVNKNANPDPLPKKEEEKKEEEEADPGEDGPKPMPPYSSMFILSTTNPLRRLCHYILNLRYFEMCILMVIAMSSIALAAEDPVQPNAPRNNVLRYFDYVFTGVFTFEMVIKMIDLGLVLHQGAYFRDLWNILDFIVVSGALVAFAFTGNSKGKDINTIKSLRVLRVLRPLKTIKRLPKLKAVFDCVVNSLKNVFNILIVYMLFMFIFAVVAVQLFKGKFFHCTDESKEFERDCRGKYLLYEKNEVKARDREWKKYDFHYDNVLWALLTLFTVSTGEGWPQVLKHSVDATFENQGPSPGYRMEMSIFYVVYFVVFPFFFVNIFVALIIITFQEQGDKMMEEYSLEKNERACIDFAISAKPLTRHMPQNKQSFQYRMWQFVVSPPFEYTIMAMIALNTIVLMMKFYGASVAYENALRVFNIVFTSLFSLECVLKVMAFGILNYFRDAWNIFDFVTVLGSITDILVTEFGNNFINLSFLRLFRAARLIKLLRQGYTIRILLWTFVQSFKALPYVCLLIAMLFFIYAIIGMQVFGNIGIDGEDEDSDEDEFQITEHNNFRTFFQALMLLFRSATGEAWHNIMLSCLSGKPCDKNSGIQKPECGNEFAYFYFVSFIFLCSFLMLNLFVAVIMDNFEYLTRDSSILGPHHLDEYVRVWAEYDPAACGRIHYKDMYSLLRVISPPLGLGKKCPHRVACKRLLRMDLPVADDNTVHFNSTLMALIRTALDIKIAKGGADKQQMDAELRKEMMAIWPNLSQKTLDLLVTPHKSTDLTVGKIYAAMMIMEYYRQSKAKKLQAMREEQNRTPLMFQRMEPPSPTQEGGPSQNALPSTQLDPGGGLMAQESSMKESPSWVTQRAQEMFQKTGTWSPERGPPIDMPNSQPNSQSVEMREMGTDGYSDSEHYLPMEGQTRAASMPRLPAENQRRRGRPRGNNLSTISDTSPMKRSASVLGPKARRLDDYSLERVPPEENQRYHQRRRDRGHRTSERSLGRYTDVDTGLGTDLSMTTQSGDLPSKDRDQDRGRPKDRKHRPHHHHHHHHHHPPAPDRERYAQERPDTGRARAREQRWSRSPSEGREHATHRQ
Sequence (P54290 25-944 partner limits assumed): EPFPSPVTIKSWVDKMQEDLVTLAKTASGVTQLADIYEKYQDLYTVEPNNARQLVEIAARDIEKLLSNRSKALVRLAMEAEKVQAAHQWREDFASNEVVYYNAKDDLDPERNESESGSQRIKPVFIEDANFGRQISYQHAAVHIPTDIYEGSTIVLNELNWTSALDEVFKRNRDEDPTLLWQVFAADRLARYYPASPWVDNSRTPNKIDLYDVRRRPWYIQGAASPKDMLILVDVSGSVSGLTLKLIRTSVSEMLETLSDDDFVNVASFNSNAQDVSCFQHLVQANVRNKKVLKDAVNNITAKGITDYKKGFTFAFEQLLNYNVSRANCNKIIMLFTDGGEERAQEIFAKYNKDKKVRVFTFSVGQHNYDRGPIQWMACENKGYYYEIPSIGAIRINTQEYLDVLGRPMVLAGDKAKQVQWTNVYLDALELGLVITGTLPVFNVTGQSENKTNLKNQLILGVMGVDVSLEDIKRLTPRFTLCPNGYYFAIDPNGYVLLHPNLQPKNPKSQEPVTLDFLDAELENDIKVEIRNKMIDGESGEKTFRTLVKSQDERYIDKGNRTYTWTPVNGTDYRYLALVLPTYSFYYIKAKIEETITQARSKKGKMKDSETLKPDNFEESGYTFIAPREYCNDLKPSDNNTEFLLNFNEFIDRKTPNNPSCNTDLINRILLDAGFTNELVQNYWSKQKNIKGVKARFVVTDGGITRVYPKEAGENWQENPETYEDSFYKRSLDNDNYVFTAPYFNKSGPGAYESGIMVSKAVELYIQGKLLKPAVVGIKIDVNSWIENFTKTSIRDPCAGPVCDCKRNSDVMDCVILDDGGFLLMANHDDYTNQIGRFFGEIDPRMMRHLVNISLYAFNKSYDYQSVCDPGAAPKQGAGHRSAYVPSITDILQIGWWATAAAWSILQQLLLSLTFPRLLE
Sequence (P54290 945-1091 partner limits assumed): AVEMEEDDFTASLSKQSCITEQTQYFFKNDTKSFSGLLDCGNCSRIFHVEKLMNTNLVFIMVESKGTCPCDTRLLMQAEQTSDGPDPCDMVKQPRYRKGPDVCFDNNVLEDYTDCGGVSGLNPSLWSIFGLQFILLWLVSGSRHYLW
Sequence (P54283 whole entry partner): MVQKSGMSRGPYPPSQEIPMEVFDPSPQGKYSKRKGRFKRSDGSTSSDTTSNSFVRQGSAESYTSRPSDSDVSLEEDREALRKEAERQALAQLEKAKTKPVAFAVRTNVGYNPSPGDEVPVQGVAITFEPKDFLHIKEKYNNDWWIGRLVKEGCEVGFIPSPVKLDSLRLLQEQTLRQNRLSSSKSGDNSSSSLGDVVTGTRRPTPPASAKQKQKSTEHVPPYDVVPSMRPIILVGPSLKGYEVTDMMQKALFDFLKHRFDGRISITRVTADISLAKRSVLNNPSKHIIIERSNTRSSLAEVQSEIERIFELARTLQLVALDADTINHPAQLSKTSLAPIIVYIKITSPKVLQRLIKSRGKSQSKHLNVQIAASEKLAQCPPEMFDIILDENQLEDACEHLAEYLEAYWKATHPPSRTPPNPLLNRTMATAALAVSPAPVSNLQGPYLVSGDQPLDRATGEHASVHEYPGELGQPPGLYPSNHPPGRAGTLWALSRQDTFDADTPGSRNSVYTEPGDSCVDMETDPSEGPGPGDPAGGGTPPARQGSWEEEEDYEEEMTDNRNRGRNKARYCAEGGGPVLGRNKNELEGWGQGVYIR
Assay: Whole cell patch clamp, P/Q-type calcium channel block in HEK 293 cells
Details: Tested at 0.1 Hz, 5 mM Ba2+
readout-type: IC50 (nM)

[I] COc1c(C(C)(C)C)cc(C(=O)N2CCN(C(=O)CCCCC(c3ccc(F)cc3)c3ccc(F)cc3)C[C@@H]2C)cc1C(C)(C)C
[II] CCOC(=O)C1CN(Cc2cc(OC)c(OC)c(OC)c2)CCN1CCCCCC(c1ccc(F)cc1)c1ccc(F)cc1 (centres unmarked)
[in] Lab note: check whether I or II shows the higher recorded IC50. // return label of chosen record
[out] I
(I: 1660 nM, II: 920 nM)
